Test system: HMLE_sh_eGFP viability, CellTiter-Glo luminescence, 72 h
measurement.protocol: cytotoxicity in HMLE control line with eGFP shRNA, dose response, counter-screen for HMLE_sh_ECad selective toxicity project, cell-based, HMLE_sh_eGFP, luminescence (AID 463074);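 note: counterscreen control line to flag general toxicity for the HMLE_sh_ECad screen; potency for loss of viability as luminescence drops below DMSO wells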
Activity calls are given as the source filed them.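 Rule for the calls: active = AC50 no more than tenfold above the top dose tested, or full inhibition at every dose with a flat fit (cut at about 19 µM in these data); inconclusive = flat curve fit with inhibition between 30% and 70%, or poor fit; inactive = AC50 more than tenfold above the top dose tested.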
Output constraint: value belongs to active, inactive

// known answers, use as guide
1) CC1(C)C(=O)N(c2ccccc2)C1c1ccccc1O (configuration not stated): active
2) Cc1cc(Nc2ccccc2)nc(-c2ccccc2O)n1: active
3) COc1ccc(-n2c(Cc3cccn3C)nnc2SCC(=O)Nc2cccc(Cl)c2)cc1: inactive
4) Cc1nc(C2CCC3C4CCC5=CC(=O)CC[C@]5(C)C4CC[C@]23C)cs1 (some centres not stated): active
5) Oc1cccc(/C=C/c2ccc3cccc(O)c3n2)c1: active
6) Cc1ccc(/C=C/C(=O)NCCc2ccccc2)o1: inactive
7) NCC(c1ccc(Cl)cc1Cl)c1c[nH]c2ccccc12 (configuration not stated): active
8) Cc1cccc(OCCNc2cc(N3CCN(C)CC3)ccc2[N+](=O)[O-])c1: active

// outcome(item) with item = Cc1ccc(NC(=S)N(CCCN2CCCC2)Cc2cccn2Cc2ccc(Cl)cc2)cc1Cl active

// outcome(item) with item = COC(=O)c1ccc(COc2ccccc2/C=C(\C#N)C(=O)Nc2c(C)cccc2C)cc1 active

// outcome(item) with item = C[C@@H]1CC[C@H]2C(=O)N3[C@@H](CC[C@@H](C)[C@@H]3c3ccc(Br)cc3)C(=O)N2[C@H]1c1ccc(Br)cc1 active

// outcome(item) with item = O=C(Cc1ccc(F)cc1)Nc1nnc(SCC(=O)N2CCCCC2)s1 inactive

###

System: HMLE_sh_eGFP viability, CellTiter-Glo luminescence, 72 h
measurement.protocol: cytotoxicity in HMLE control line with eGFP shRNA, dose response, counter-screen for HMLE_sh_ECad selective toxicity project, cell-based, HMLE_sh_eGFP, luminescence (AID 463074);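 note: counterscreen control line to flag general toxicity for the HMLE_sh_ECad screen; potency for loss of viability as luminescence drops below DMSO wells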
The source made the active and inactive calls.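 Rule for the calls: active = AC50 no more than tenfold above the top dose tested, or full inhibition at every dose with a flat fit (cut at about 19 µM in these data); inconclusive = flat curve fit with inhibition between 30% and 70%, or poor fit; inactive = AC50 more than tenfold above the top dose tested.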
Output constraint: value belongs to YES = active, NO = inactive

// known answers, use as guide
1) CCN1CCN(Cc2ccc(OCc3ccccc3)cc2)CC1: YES
2) O=C(NC(=S)Nc1cccc(Cl)c1N1CCCCC1)c1cccs1: YES
3) Cc1ccc(/C=C/C(=O)c2cc(Br)ccc2OC(=O)c2ccco2)cc1: YES
4) Cc1cc(C)c(O)c(-c2n[nH]c3c2C(c2cccc(O)c2)N(Cc2ccco2)C3=O)c1 (stereo unspecified): YES
5) Cc1ccc(NCc2ccc([N+](=O)[O-])s2)cc1: NO
6) CCCCc1ccc(N=N/C(C(=O)Nc2ccc(NC(C)=O)cc2OC)=C(/C)O)cc1: YES
7) O=C(c1ccccc1)c1nn(-c2ccc(Cl)cc2)c(=O)cc1C(F)(F)F: YES
8) O=C(N/N=C/c1ccc(O)cc1O)/C(=C/c1ccccc1)CCO: YES
9) O=C(CC1NCCc2ccccc21)Nc1ccc(Oc2ccccc2)cc1 (stereo unspecified): YES
10) Cc1ccc(-c2cc(C(=O)NCc3ccc4c(c3)OCO4)no2)cc1: NO

Could you now look at the following molecule, please?
// outcome(item) with item = CCCc1ccc(O)c(N=Cc2cc(Br)cc(OCC)c2O)c1 YES

###

Tested on: HMLE_sh_eGFP viability, CellTiter-Glo luminescence, 72 h
measurement.protocol: cytotoxicity in HMLE control line with eGFP shRNA, dose response, counter-screen for HMLE_sh_ECad selective toxicity project, cell-based, HMLE_sh_eGFP, luminescence (AID 463074);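 note: counterscreen control line to flag general toxicity for the HMLE_sh_ECad screen; potency for loss of viability as luminescence drops below DMSO wells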;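 active = AC50 no more than tenfold above the top dose tested, or full inhibition at every dose with a flat fit (cut at about 19 µM in these data); inconclusive = flat curve fit with inhibition between 30% and 70%, or poor fit; inactive = AC50 more than tenfold above the top dose tested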
Output constraint: value belongs to 1 (yes) (active), 0 (no) (inactive)

// known answers, use as guide
1. NS(=O)(=O)c1ccc(N/N=C/c2cn(-c3ccccc3)nc2-c2cccs2)c([N+](=O)[O-])c1: 1 (yes)
2. Cc1oc(CC(C)C)cc1C(=O)Nc1cccc2ccccc12: 1 (yes)
3. O=C(Oc1ccc(-c2nc(-c3ccccn3)no2)cc1)c1ccccc1: 1 (yes)

Could you now look at the following molecule, please?
// outcome(item) with item = CCCCC(=O)NC(c1ccco1)c1cc(Cl)c2cccnc2c1O (stereo not given) 1 (yes)
